growth reference
# System: SF-268 CNS
# methodNotes: NCI-60 one-dose screen, 48 h (100 = growth as untreated, 0 = no growth, -100 = all killed)
# reportedConditions: 10 µM unless noted
# Protocol: Cells are grown in 96 well plates and exposed to the test compound for 48 hours. Compounds are tested at a single concentration, which is 10^-5 M for most compounds. The reported endpoint is percent growth (GI% or GIPRCNT), where numbers from 0 - 100% represent growth inhibition, and numbers from -100% - 0 represent cell death. For example, a value of 40 represents 60% growth inhibition. A value of 0 means no net growth occurred over the course of the experiment. […]
This is part of a sample that, as a whole, favours compounds with a hit. Of some 83,000 tested, about 20% had one in any assay.

{"compound": "NN=C(c1ccc(Cl)cc1)c1ccc(Cl)cc1", "quantityUnit": "%", "growth": 96.6}
{"compound": "O=c1nc(N2CCOCC2)oc2c(-c3cccc4ccccc34)cccc12", "quantityUnit": "%", "growth": 80.6}
{"compound": "CC(=O)N1N=C2N(Cc3ccccc3)C(=O)c3c(sc4c3CCCC4)N2C1c1cn(-c2ccccc2)nc1-c1ccc(Cl)cc1 (centres undefined)", "quantityUnit": "%", "growth": 100}
{"compound": "C=C1C(=O)O[C@H]2[C@H]1CC/C(COC(=O)CCCC(=O)OC/C1=C/CC[C@@]3(C)O[C@H]3[C@H]3OC(=O)C(=C)[C@@H]3CC1)=C\\CC[C@@]1(C)O[C@@H]21", "quantityUnit": "%", "growth": 44.2}
